Target: T1, MBP-ENL (489-559) (Homo sapiens (Human)) (UniProt Q03111)
T1 sequence: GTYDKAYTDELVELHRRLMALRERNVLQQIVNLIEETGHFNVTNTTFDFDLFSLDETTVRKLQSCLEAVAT
Assay: ITC; peptide (500 µM) into MBP-ENL (110 µM)
MEASURED_METRIC: Kd (µM)
Output spec: scalar in µM, unitless text.

Task: Quick one: Kd for Ac-LPISIPL-NH2 [DOT1L 7 mer peptide, Ac-LPISIPL-NH2 (865-871)] ?
Output: 3.4
